Test system: Mycobacterium tuberculosis Erdman (autoluminescent)
Assay: Einf, fitted maximum growth inhibition (fraction); higher = stronger maximal inhibition
Conditions: in vitro model: standard 7H9 glycerol; time point: constant = terminal
metric.name: Einf
// no unit string in output, number only

## Task Quick one: Einf of `COc1c(N2C[C@@H]3CCCN[C@@H]3C2)c(F)cc2c(=O)c(C(=O)O)cn(C3CC3)c12` ?
## Result 0.913

## Task Moving on to `CC(C)/N=c1\cc2n(-c3ccc(Cl)cc3)c3ccccc3nc-2cc1Nc1ccc(Cl)cc1`
## Result 0.965

## Task Same read-out for `CC[C@@H](CO)NCCN[C@@H](CC)CO` ?
## Result 0.852

## Task What about this compound? `CO[C@H]1/C=C/O[C@@]2(C)Oc3c(C)c(O)c4c(O)c(c(/C=N/N5CCN(C6CCCC6)CC5)c(O)c4c3C2=O)NC(=O)/C(C)=C\C=C\[C@H](C)[C@H](O)[C@@H](C)[C@@H](O)[C@@H](C)[C@H](OC(C)=O)[C@@H]1C`
## Result 0.894

## Task Consider next the compound `NNC(=O)c1ccncc1` in the same way.
## Result 0.882

----------
Tested on: Mycobacterium tuberculosis Erdman (autoluminescent)
Experiment: AUC25, normalised area under dose response up to IC25 (three-drug combination) (fraction (0-1)); higher = more potent at low dose
Conditions: in vitro model: valerate; time point: constant (~7 days, model-specific)
metric.name: AUC25
Answer as a number with no unit attached.

## Task AUC25 for COc1nc2ccc(Br)cc2cc1[C@@H](c1ccccc1)[C@@](O)(CCN(C)C)c1cccc2ccccc12 [bedaquiline] + O=[N+]([O-])c1cn2c(n1)OC[C@@H](OCc1ccc(OC(F)(F)F)cc1)C2 [pretomanid] + CO[C@H]1/C=C/O[C@@]2(C)Oc3c(C)c(O)c4c(O)c(c(/C=N/N5CCN(C)CC5)c(O)c4c3C2=O)NC(=O)/C(C)=C\C=C\[C@H](C)[C@H](O)[C@@H](C)[C@@H](O)[C@@H](C)[C@H](OC(C)=O)[C@@H]1C [rifampicin] ?
## Result 0.103

----------
System: Mycobacterium tuberculosis Erdman (autoluminescent)
Assay: Einf, fitted maximum growth inhibition of three-drug combination (fraction); higher = stronger maximal inhibition
Conditions: in vitro model: intracellular J774; time point: constant = terminal
Please respond with reported Einf for every item in the list.

## Task Need Einf, item CC(C)/N=c1\cc2n(-c3ccc(Cl)cc3)c3ccccc3nc-2cc1Nc1ccc(Cl)cc1 [clofazimine] + O=[N+]([O-])c1cn2c(n1)OC[C@@H](OCc1ccc(OC(F)(F)F)cc1)C2 [pretomanid] + CO[C@H]1/C=C/O[C@@]2(C)Oc3c(C)c(O)c4c(O)c(c(/C=N/N5CCN(C6CCCC6)CC5)c(O)c4c3C2=O)NC(=O)/C(C)=C\C=C\[C@H](C)[C@H](O)[C@@H](C)[C@@H](O)[C@@H](C)[C@H](OC(C)=O)[C@@H]1C [rifapentine]
## Result 0.989

## Task Also check COc1nc2ccc(Br)cc2cc1[C@@H](c1ccccc1)[C@@](O)(CCN(C)C)c1cccc2ccccc12 [bedaquiline] + CC(=O)NC[C@H]1CN(c2ccc(N3CCOCC3)c(F)c2)C(=O)O1 [linezolid] + NC(=O)c1cnccn1 [pyrazinamide]
## Result 0.928

## Task Also COc1nc2ccc(Br)cc2cc1[C@@H](c1ccccc1)[C@@](O)(CCN(C)C)c1cccc2ccccc12 [bedaquiline] + COc1c(N2C[C@@H]3CCCN[C@@H]3C2)c(F)cc2c(=O)c(C(=O)O)cn(C3CC3)c12 [moxifloxacin] + NC(=O)c1cnccn1 [pyrazinamide] ?
## Result 0.982

## Task Repeat with CC(C)/N=c1\cc2n(-c3ccc(Cl)cc3)c3ccccc3nc-2cc1Nc1ccc(Cl)cc1 [clofazimine] + COc1c(N2C[C@@H]3CCCN[C@@H]3C2)c(F)cc2c(=O)c(C(=O)O)cn(C3CC3)c12 [moxifloxacin] + O=[N+]([O-])c1cn2c(n1)OC[C@@H](OCc1ccc(OC(F)(F)F)cc1)C2 [pretomanid]
## Result 0.981

## Task Again, but for CC[C@@H](CO)NCCN[C@@H](CC)CO [ethambutol] + COc1c(N2C[C@@H]3CCCN[C@@H]3C2)c(F)cc2c(=O)c(C(=O)O)cn(C3CC3)c12 [moxifloxacin] + CO[C@H]1/C=C/O[C@@]2(C)Oc3c(C)c(O)c4c(O)c(c(/C=N/N5CCN(C)CC5)c(O)c4c3C2=O)NC(=O)/C(C)=C\C=C\[C@H](C)[C@H](O)[C@@H](C)[C@@H](O)[C@@H](C)[C@H](OC(C)=O)[C@@H]1C [rifampicin]
## Result 0.965

## Task // same read-out, input: CC(=O)NC[C@H]1CN(c2ccc(N3CCOCC3)c(F)c2)C(=O)O1 [linezolid] + COc1c(N2C[C@@H]3CCCN[C@@H]3C2)c(F)cc2c(=O)c(C(=O)O)cn(C3CC3)c12 [moxifloxacin] + CO[C@H]1/C=C/O[C@@]2(C)Oc3c(C)c(O)c4c(O)c(c(/C=N/N5CCN(C)CC5)c(O)c4c3C2=O)NC(=O)/C(C)=C\C=C\[C@H](C)[C@H](O)[C@@H](C)[C@@H](O)[C@@H](C)[C@H](OC(C)=O)[C@@H]1C [rifampicin]
## Result 0.919

## Task Next: COc1nc2ccc(Br)cc2cc1[C@@H](c1ccccc1)[C@@](O)(CCN(C)C)c1cccc2ccccc12 [bedaquiline] + CC(C)/N=c1\cc2n(-c3ccc(Cl)cc3)c3ccccc3nc-2cc1Nc1ccc(Cl)cc1 [clofazimine] + CO[C@H]1/C=C/O[C@@]2(C)Oc3c(C)c(O)c4c(O)c(c(/C=N/N5CCN(C6CCCC6)CC5)c(O)c4c3C2=O)NC(=O)/C(C)=C\C=C\[C@H](C)[C@H](O)[C@@H](C)[C@@H](O)[C@@H](C)[C@H](OC(C)=O)[C@@H]1C [rifapentine]
## Result 0.951

Reference source for all entries: the supplement of paper PMC8617591
